# T/C listing for each entry below
# Tested on: MX-1 breast xenograft, nude mice, tumor weight T/C
# ASSAY_EXPLANATION: NCI In Vivo Anticancer Drug Screen. Data for tumor model Human Mammary Carcinoma MX-1 Xenograft (intrarenal inoculation) in NU/NU Swiss (nude) mice
# CONDITION: endpoint: mean tumor weight change; dose: 8.0 mg/kg/injection; schedule: Q04DX003 (sc); vehicle: saline; higher = larger tumour
Results filed as inconclusive are left out.

CCC1CC2CN(CCc3c([nH]c4ccccc34)C(C(=O)OC)(c3cc4c(cc3OC)N(C)C3C(O)(C(=O)OC)C(OC(C)=O)C5(CC)C=CCN6CCC43C65)C2)C1 (stereo unspecified) | 4 % of control

stdin: # lookup: T/C of C/C=C(\C)c1cc(=O)c2c(C)cc3c(c2o1)C(=O)c1c(O)c(C2CC(C)(N(C)C)C(O)C(C)O2)cc(C2CC(N(C)C)C(O)C(C)O2)c1C3=O (stereo unspecified)
stdout: 28 % of control

stdin: CC[C@@]1(O)C(=O)OCc2c1cc1n(c2=O)Cc2cc3cc(O)ccc3nc2-1 , same question.
stdout: -98 % of control

stdin: Cc1c(N)nc(C(CC(N)=O)NCC(N)C(N)=O)nc1C(=O)NC(C(=O)NC(C)C(O)CC(=O)NC(C(=O)NC(OC1OC(C)C(N)C(O)C1O)C(O)c1nc(-c2nc(C(=O)NCCCC(N)CC(=O)NCCCNCCCCN)cs2)cs1)C(C)O)C(OC1OC(CO)C(O)C(O)C1OC1OC(CO)C(O)C(OC(N)=O)C1O)c1cnc[nH]1 (stereo unspecified) , same question.
stdout: 47 % of control

stdin: CC[C@](O)(C(=O)O)c1cc2n(c(=O)c1CO)Cc1cc3ccccc3nc1-2 , same question.
stdout: 2 % of control

stdin: N[C@H](C(=O)O)[C@@H]1CC(Cl)=NO1 , same question.
stdout: 25 % of control

stdin: Cc1c(N)nc([C@H](CC(N)=O)NC[C@H](N)C(N)=O)nc1C(=O)N[C@H](C(=O)N[C@H](C)[C@@H](O)[C@H](C)C(=O)N[C@H](C(=O)NCCc1nc(-c2nc(C(=O)NCCC[S+](C)C)cs2)cs1)[C@@H](C)O)C(OC1OC(CO)C(O)C(O)C1OC1OC(CO)C(O)C(OC(N)=O)C1O)c1cnc[nH]1 (stereo partly specified) , same question.
stdout: 87 % of control

stdin: O=C1C(NCCO)=C(N2CC2)C(=O)C(NCCO)=C1N1CC1 , same question.
stdout: -90 % of control

stdin: Cc1c(N)nc([C@H](CC(N)=O)NC[C@H](N)C(N)=O)nc1C(=O)N[C@H](C(=O)N[C@H](C)[C@@H](O)CC(=O)N[C@H](C(=O)NC(O[C@@H]1O[C@@H](C)[C@@H](N)[C@@H](O)[C@H]1O)C(O)c1nc(-c2nc(C(=O)NCCCCN)cs2)cs1)[C@@H](C)O)[C@@H](O[C@@H]1O[C@@H](CO)[C@@H](O)[C@H](O)[C@@H]1O[C@H]1O[C@H](CO)[C@@H](O)[C@H](OC(N)=O)[C@@H]1O)c1c[nH]cn1 (stereo partly specified) , same question.
stdout: 64 % of control

stdin: O=NNc1ccccn1 , same question.
stdout: 103 % of control

stdin: COC1=C2C[C@@H](C)C[C@@H](OC)[C@@H](O)[C@H](C)/C=C(\C)[C@@H](OC(N)=O)[C@H](OC)/C=C\C=C(/C)C(=O)NC(=CC1=O)C2=O , same question.
stdout: 89 % of control
